FYI, the data here is from ChEMBL document CHEMBL5058577.

Test system: HEK-293T
Assay: Multiplex assay against HEK293T
Format: toxicity, cell-based
Conditions: human, 48 h, 1 µM, compound concentration 1 uM, replicate 2
parameter-measured: Population Pyknosed Nuclei (%)
Write down the numeric answer in % and omit the unit.

{"compound": "Cc1sc2c(c1C)C(c1ccc(Cl)cc1)=N[C@H](CC(=O)OC(C)(C)C)c1nnc(C)n1-2", "parameter-measured": "Population Pyknosed Nuclei (%)", "reading-unit": "%", "value-reported": 5}
{"compound": "COCCn1c(C)c(C)s/c1=N\\C(=O)C1C(C)(C)C1(C)C", "parameter-measured": "Population Pyknosed Nuclei (%)", "reading-unit": "%", "value-reported": 7}
{"compound": "Cc1ccc(OCC(O)C(C)NC(C)C)c2c1CCC2.Cl (stereo not drawn)", "parameter-measured": "Population Pyknosed Nuclei (%)", "reading-unit": "%", "value-reported": 7}
{"compound": "CN1CCC(C(=O)c2cccc(NC(=O)c3c(F)cc(F)cc3F)n2)CC1", "parameter-measured": "Population Pyknosed Nuclei (%)", "reading-unit": "%", "value-reported": 5}
{"compound": "N[C@](CC1c2ccccc2Oc2ccccc21)(C(=O)O)[C@H]1C[C@@H]1C(=O)O", "parameter-measured": "Population Pyknosed Nuclei (%)", "reading-unit": "%", "value-reported": 6}

Prompt: Param readout= Population Pyknosed Nuclei (%); system= HEK-293T; entry= O=c1nc2[nH]c3ccccc3nc-2c(=O)[nH]1 [ALLOXAZINE] ; returns value.
Response: 6

Prompt: Also check CCC(=O)OCC(=O)[C@@]1(OC(=O)CC)[C@@H](C)C[C@H]2[C@@H]3CCC4=CC(=O)C=C[C@]4(C)[C@@]3(Cl)[C@@H](O)C[C@@]21C [BECLOMETHASONE DIPROPIONATE]
Response: 8

Prompt: Also check S=C(NCCCc1c[nH]cn1)NCCCN(Cc1ccc(Cl)c(Cl)c1)c1ccc(Br)cn1
Response: 9

Prompt: Also check CCc1nn2c(C)cc(C)nc2c1Cc1ccc(-c2nnc(C3CCNCC3)o2)cc1
Response: 5

Prompt: Also check CN1CCN(c2ccc(Nc3c4ccccc4nc4ccccc34)cc2)CC1.Cl.Cl.O
Response: 3

Prompt: Also check CC(C)C[C@H](CO)Nc1nc(S[C@@H](C)c2ccccc2)nc2nc(N)sc12 [AZD-8797]
Response: 8

Prompt: Also check O=C(O)CCC/C=C\CC1C(O)CC(O)C1/C=C/C(O)COc1cccc(Cl)c1 (stereo not drawn) [CLOPROSTENOL]
Response: 5

Prompt: Also check O=C(NCCNCC(O)COc1ccc(O)cc1)N1CCOCC1.O=C(NCCNCC(O)COc1ccc(O)cc1)N1CCOCC1.O=C(O)/C=C/C(=O)O (stereo not drawn) [XAMOTEROL FUMARATE]
Response: 6

Prompt: Also check COc1ccc2[nH]c(I)c(CCNC(C)=O)c2c1 [IODOMELATONIN]
Response: 8

====

Tested on: HEK-293T
Test: Multiplex assay against HEK293T
Assay type: toxicity, cell-based
Conditions: human, 24 h, 1 µM, compound concentration 1 uM, replicate 2
Just a reminder that ties go to NO: only Population Pyknosed Nuclei (%) strictly below 8% counts as YES.

Some solved entries appear below for comparison.
{"molecule": "Cc1sc2c(c1C)C(c1ccc(Cl)cc1)=N[C@H](CC(=O)OC(C)(C)C)c1nnc(C)n1-2", "class-assignment": "YES"}
{"molecule": "O=C(NCCNCC(O)COc1ccc(O)cc1)N1CCOCC1.O=C(NCCNCC(O)COc1ccc(O)cc1)N1CCOCC1.O=C(O)/C=C/C(=O)O (stereo unspecified) [XAMOTEROL FUMARATE]", "class-assignment": "NO"}
{"molecule": "CCCCCCNC(=O)Nc1ccc(S(=O)(=O)Nc2ccc(CCNC[C@H](O)COc3ccc(O)cc3)cc2)cc1", "class-assignment": "YES"}
{"molecule": "CN1CCN2c3ccccc3Cc3ccccc3C2C1.Cl (stereo unspecified) [MIANSERIN HYDROCHLORIDE]", "class-assignment": "NO"}
{"molecule": "Cc1cc(NC(=O)NCCN2CCC(O)(Cc3ccccc3)CC2)c2ccccc2n1", "class-assignment": "NO"}

Prompt: Does O=C(O)CCC/C=C\CC1C(O)CC(O)C1/C=C/C(O)COc1cccc(Cl)c1 (stereo unspecified) have Population Pyknosed Nuclei (%) strictly under 8%?
Response: NO

Prompt: Also check C=CCN1C[C@H](C(=O)N(CCCN(C)C)C(=O)NCC)C[C@@H]2c3cccc4[nH]cc(c34)C[C@H]21
Response: NO

====

Tested on: Fibroblast
Test: Multiplex assay against human fibroblast
Format: toxicity, cell-based
Settings: 12 h, 10 µM, compound concentration 10 uM, replicate 1
Measured Population Fragmented Nuclei (%), listed per entry.
Write down the numeric answer in % and omit the unit.

Examples with answers:
{"compound": "C[C@H](NC(=O)CNC(=O)c1cccc(Cl)c1)c1ccccc1", "Population Fragmented Nuclei (%)": 15}
{"compound": "Nc1nc(CC(=O)Nc2ccc(CCNC[C@H](O)c3ccccc3)cc2)cs1 [MIRABEGRON]", "Population Fragmented Nuclei (%)": 15}
{"compound": "O=c1nc2[nH]c3ccccc3nc-2c(=O)[nH]1 [ALLOXAZINE]", "Population Fragmented Nuclei (%)": 23}

Prompt: Given the entry COC(c1ccccc1)(c1ccccc1)[C@H](Oc1nc(C)cc(C)n1)C(=O)O [AMBRISENTAN] , report its measured Population Fragmented Nuclei (%).
Response: 8

Prompt: Also check COc1ccc2c(c1OCc1ccccc1)C[C@@H](C(=O)O)N(C(=O)C(c1ccccc1)c1ccccc1)C2 [OLODANRIGAN]
Response: 11

Prompt: Also check COc1c(Nc2ccc(S(C)(=O)=O)nc2C)ncnc1OC1CCN(C(=O)OC(C)C)CC1 [ADP-597]
Response: 21

Prompt: Also check COc1cc(OC2CCN(C(C)=O)CC2)ccc1C(=O)N1CCC(N2C(=O)OCc3ccccc32)CC1
Response: 10

Prompt: Also check Cc1cc(NC(=O)NCCN2CCC(O)(Cc3ccccc3)CC2)c2ccccc2n1 [PALOSURAN]
Response: 14

Prompt: Also check CN1CCN(c2ccc(Nc3c4ccccc4nc4ccccc34)cc2)CC1.Cl.Cl.O
Response: 42

Prompt: Also check CCn1c(-c2nc3cc(C(=O)N4CCCC(N)C4)ccc3n2C)cc2ccccc21.Cl (centres undefined)
Response: 22

Prompt: Also check CN1CCC(C(=O)c2cccc(NC(=O)c3c(F)cc(F)cc3F)n2)CC1
Response: 12

Prompt: Also check C[C@@H]1CC(=O)Nc2cccc(-c3ccc4c(c3)c(-c3cnn(C)c3)nn4C)c2N1
Response: 17

Prompt: Also check Cc1cc(-c2ccc3c(c2)CC[C@H]3N2CC3(CCN(C(=O)Cc4cn5cc(C)sc5n4)CC3)C2)ncn1 [PF-5190457]
Response: 17

Prompt: Also check Cc1ccc(OCC(O)C(C)NC(C)C)c2c1CCC2.Cl (centres undefined)
Response: 39

Prompt: Also check Cc1cc(=O)n(C)c2cc(N3C(=O)CC[C@H](NS(=O)(=O)CC(C)C)[C@H]3c3ccc(Cl)cc3)ccc12
Response: 11

Prompt: Also check C=CCN1C[C@H](C(=O)N(CCCN(C)C)C(=O)NCC)C[C@@H]2c3cccc4[nH]cc(c34)C[C@H]21 [CABERGOLINE]
Response: 25

Prompt: Also check Cc1c(Cc2ccc3ccccc3n2)c2cc(F)ccc2n1CC(=O)O [TIMAPIPRANT]
Response: 13

Prompt: Also check Cc1nn(C)c2nc(NNC(=O)Nc3cc(Cl)nc(Cl)c3)cc(C(C)C)c12
Response: 12

====

System: HEK-293T
Assay: Multiplex assay against HEK293T
Format: toxicity, cell-based
Conditions: human, 24 h, 10 µM, compound concentration 10 uM, replicate 2
Measured Population Hoechst High Intensity Objects (%), listed per entry.
Write down the numeric answer in % and omit the unit.

{"compound": "O=C(O)CCC/C=C\\CC1C(O)CC(O)C1/C=C/C(O)COc1cccc(Cl)c1 (stereo not given)", "target-or-test-system": "HEK-293T", "value-reported": 11}
{"compound": "COc1cc(OC2CCN(C(C)=O)CC2)ccc1C(=O)N1CCC(N2C(=O)OCc3ccccc32)CC1", "target-or-test-system": "HEK-293T", "value-reported": 4}
{"compound": "C[C@H](NC(=O)CNC(=O)c1cccc(Cl)c1)c1ccccc1", "target-or-test-system": "HEK-293T", "value-reported": 9}

Prompt: Given the entry CCc1nn2c(C)cc(C)nc2c1Cc1ccc(-c2nnc(C3CCNCC3)o2)cc1 , report its measured Population Hoechst High Intensity Objects (%).
Response: 7

Prompt: Also check CN(C)C(=O)Cn1cc(-c2ccc(-c3nnc4ccccn34)cc2)cn1
Response: 7

====

Tested on: U2OS
Assay: Multiplex assay against U2OS
Type: toxicity, cell-based
Conditions: human, 12 h, 10 µM, compound concentration 10 uM, replicate 2
Non-standard residues stand in square brackets, D forms with d. Residues, ends and D or L forms follow the SMILES beside them.
Measured Population Mitotic Cells (%), listed per entry.
Write down the numeric answer in % and omit the unit.

Examples with answers:
{"compound": "Cc1cc(-c2ccc3c(c2)CC[C@H]3N2CC3(CCN(C(=O)Cc4cn5cc(C)sc5n4)CC3)C2)ncn1 [PF-5190457]", "parameter-measured": "Population Mitotic Cells (%)", "value-reported": 28}
{"compound": "COCCn1c(C)c(C)s/c1=N\\C(=O)C1C(C)(C)C1(C)C", "parameter-measured": "Population Mitotic Cells (%)", "value-reported": 20}
{"compound": "Nc1nc(-c2ccco2)c2cnn(Cc3ccccc3F)c2n1", "parameter-measured": "Population Mitotic Cells (%)", "value-reported": 22}

Prompt: Param readout= Population Mitotic Cells (%); system= U2OS; entry= CC(C)C[C@@H]1NC(=O)[C@@H](C(C)C)NC(=O)[C@@H]2CCCN2C(=O)[C@@H](CC(=O)O)NC(=O)[C@@H](Cc2c[nH]c3ccccc23)NC1=O [BQ-123] (cyclo(L[dW][dD]P[dV])) ; returns value.
Response: 25
